src = patent US11369599B2

experiment: First-in-human Phase 1 study (safety, PK) in relapsed or refractory CLL; type: in vivo; details: plasma, oral; human subjects, observed
Property name: clearance (mL/min)

{"Smiles str": "CC1(C)CCC(CN2CCN(c3ccc(C(=O)NS(=O)(=O)c4ccc(NCC5CCOCC5)c([N+](=O)[O-])c4)c(Oc4cnc5[nH]ccc5c4)c3)CC2)=C(c2ccc(Cl)cc2)C1", "Reported result": 78.3}

----------
assay: First-in-human Phase 1 study (safety, PK) in relapsed or refractory CLL; type: in vivo; settings: human, plasma, oral, human subjects, observed; read-out: terminal elimination half-life (converted)

{"Smiles str": "CC1(C)CCC(CN2CCN(c3ccc(C(=O)NS(=O)(=O)c4ccc(NCC5CCOCC5)c([N+](=O)[O-])c4)c(Oc4cnc5[nH]ccc5c4)c3)CC2)=C(c2ccc(Cl)cc2)C1", "half-life": "31 h"}
